- Tested on: UACC-257
- test.protocol: Growth inhibition of human UACC257 cells at 10 uM after 48 hrs by sulforhodamine B assay
- Type: functional, cell-based
Activity calls are given as the source filed them. No cut-off for these calls is given here.
parameter: growth inhibition (GI)

{"columns": ["compound", "parameter", "test.result"],
 "data": [
  ["COc1ccc2ccc(=O)oc2c1C1=NN(c2ccc(S(N)(=O)=O)cc2)C(c2ccc(C)o2)C1 (centres undefined)", "growth inhibition (GI)", "inactive"],
  ["COc1ccc2ccc(=O)oc2c1C1=NN(S(=O)(=O)c2ccccc2)C(c2ccc(C)o2)C1 (centres undefined)", "growth inhibition (GI)", "inactive"],
  ["COc1ccc2ccc(=O)oc2c1C1=NN(S(=O)(=O)c2ccccc2)C(c2ccc(SC)cc2)C1 (centres undefined)", "growth inhibition (GI)", "inactive"],
  ["COc1ccc2ccc(=O)oc2c1C1=NN(S(=O)(=O)c2ccccc2)C(c2cccs2)C1 (centres undefined)", "growth inhibition (GI)", "inactive"]
]}

* * *

- experimental.system: PI3-kinase p110-alpha/p85-alpha (Homo sapiens) (UniProt P27986+P42336)
- test.protocol: Inhibition of PI3K p110alpha/p85alpha (unknown origin) at 50 uM by ADP-Glo assay
- Type: protein-complex assay
Known inhibition of a selection of compounds
parameter: inhibition (%)

{"columns": ["compound", "modifier", "test.result"],
 "data": [
  ["COc1ccc2ccc(=O)oc2c1C1=NN(S(=O)(=O)c2ccc(Cl)cc2)C(c2ccc(C)cc2)C1 (centres undefined)", "=", 20],
  ["COc1ccc2ccc(=O)oc2c1C1=NN(S(=O)(=O)c2ccc(C)cc2)C(c2ccc(C)cc2)C1 (centres undefined)", "<", 5],
  ["COc1ccc2ccc(=O)oc2c1C1=NN(S(=O)(=O)c2ccc(Cl)cc2)C(c2cccs2)C1 (centres undefined)", "<", 5],
  ["COc1ccc2ccc(=O)oc2c1C1=NN(S(=O)(=O)c2ccc(C)cc2)C(c2ccc(SC)cc2)C1 (centres undefined)", "=", 10]
]}
